# PROCEDURE DETAILS: Fraction unbound in CD-1 mouse brain homogenates at 1 uM after 6 hrs by equilibrium dialysis method
# EXPERIMENTAL PARAMETERS: brain homogenate
MEASUREMENT KIND: fraction unbound at 6 h, 1 µM
// return a plain number; no unit text

Documented fraction unbound at 6 h, 1 µM of CO[C@H]1/C=C/O[C@@]2(C)Oc3c(C)c(O)c4c(O)c(c(/C=N/N5CCN(C)CC5)c(O)c4c3C2=O)NC(=O)/C(C)=C\C=C\[C@H](C)[C@H](O)[C@@H](C)[C@@H](O)[C@@H](C)[C@H](OC(C)=O)[C@@H]1C [RIFAMPIN] : 0.121

Documented fraction unbound at 6 h, 1 µM of Cc1c(C(=O)NN2CCCCC2)nn(-c2ccc(Cl)cc2Cl)c1-c1ccc(Cl)cc1 [RIMONABANT] : 0.0004

Documented fraction unbound at 6 h, 1 µM of CCN(C)C(=O)Oc1cccc([C@H](C)N(C)C)c1 [RIVASTIGMINE] : 0.341

Documented fraction unbound at 6 h, 1 µM of NC12CC3CC(CC(C3)C1)C2 [AMANTADINE] : 0.181

Documented fraction unbound at 6 h, 1 µM of NS(=O)(=O)Cc1noc2ccccc12 [ZONISAMIDE] : 0.299

Documented fraction unbound at 6 h, 1 µM of CNCCC=C1c2ccccc2CCc2ccccc21 [NORTRIPTYLINE] : 0.008

Documented fraction unbound at 6 h, 1 µM of CC(NC(C)(C)C)C(=O)c1cccc(Cl)c1 (stereo not given) [BUPROPION] : 0.133

Documented fraction unbound at 6 h, 1 µM of O=C1CCc2ccc(OCCCCN3CCN(c4cccc(Cl)c4Cl)CC3)cc2N1 [ARIPIPRAZOLE] : 0.001

Documented fraction unbound at 6 h, 1 µM of CCN(CC)CCNC(=O)c1cc(Cl)c(N)cc1OC [METOCLOPRAMIDE] : 0.23

Documented fraction unbound at 6 h, 1 µM of CC(=O)CC(c1ccccc1)c1c(O)c2ccccc2oc1=O (stereo not given) [WARFARIN] : 0.094

Documented fraction unbound at 6 h, 1 µM of CCCCN1CCCCC1C(=O)Nc1c(C)cccc1C (stereo not given) [BUPIVACAINE] : 0.274

Documented fraction unbound at 6 h, 1 µM of CCCNC(=O)NS(=O)(=O)c1ccc(Cl)cc1 [CHLORPROPAMIDE] : 0.441

Documented fraction unbound at 6 h, 1 µM of NC(=O)N1c2ccccc2C=Cc2ccccc21 [CARBAMAZEPINE] : 0.173

Documented fraction unbound at 6 h, 1 µM of CN1Cc2c(N)cccc2C(c2ccccc2)C1 (stereo not given) [NOMIFENSINE] : 0.078

Documented fraction unbound at 6 h, 1 µM of C[C@@H](O[C@H]1OCCN(Cc2n[nH]c(=O)[nH]2)[C@H]1c1ccc(F)cc1)c1cc(C(F)(F)F)cc(C(F)(F)F)c1 [APREPITANT] : 0.002

----------
So I've got a bunch of molecules here, and I need their fraction unbound at 6 h, 1 µM values.
# PROCEDURE DETAILS: Fraction unbound in Beagle dog brain homogenates at 1 uM after 6 hrs by equilibrium dialysis method
# EXPERIMENTAL PARAMETERS: brain homogenate
// return a plain number; no unit text

Documented fraction unbound at 6 h, 1 µM of `Fc1ccc([C@@H]2CCNC[C@H]2COc2ccc3c(c2)OCO3)cc1` : 0.004

Documented fraction unbound at 6 h, 1 µM of `CNCCC=C1c2ccccc2CCc2ccccc21` : 0.007

Documented fraction unbound at 6 h, 1 µM of COC(=O)C1=C(C)NC(C)=C(C(=O)OCCN(C)Cc2ccccc2)C1c1cccc([N+](=O)[O-])c1 (stereo not drawn) : 0.006

Documented fraction unbound at 6 h, 1 µM of `O=C1NC(=O)C(c2ccccc2)(c2ccccc2)N1` : 0.259

Documented fraction unbound at 6 h, 1 µM of `O=C(O[C@H]1CN2CCC1CC2)N1CCc2ccccc2[C@@H]1c1ccccc1` : 0.018

Documented fraction unbound at 6 h, 1 µM of `CN(C)CCCN1c2ccccc2CCc2ccc(Cl)cc21` : 0.004

Documented fraction unbound at 6 h, 1 µM of COCCOC(=O)C1=C(C)NC(C)=C(C(=O)OC(C)C)C1c1cccc([N+](=O)[O-])c1 (stereo not drawn) : 0.007

Documented fraction unbound at 6 h, 1 µM of `CC(C)C[C@H]1C(=O)N2CCC[C@H]2[C@]2(O)O[C@](NC(=O)[C@@H]3C=C4c5cccc6[nH]c(Br)c(c56)C[C@H]4N(C)C3)(C(C)C)C(=O)N12` : 0.002
